Molecular target: vasopressin-2 receptor (AVP2R) (Homo sapiens)
Construct: expressed in transfected cells; host or cells: CHO-K1 (PAM format); HEK-293 (agonist format)
Assay: AVP2R cAMP HTRF accumulation assay
Type: cell-based
Details: CHO-K1 AVP2R cells, PAM format with vasopressin; original hits: agonist and PAM data combined; average ± SD
Experimental: Possible off-target biological effects. […] Here, we tested them at the vasopressin-2 receptor (AVP2R), representing a class A GPCR structurally related to CCK1R, which is coupled to Gs. The activity at AVP2R was tested using AVP2R-overexpressing CHO-K1 (PAM format) or HEK-293 (agonist format) cells, stimulating the cells with vasopressin. Original hits were tested in both agonist and PAM formats. […] The plate was kept at room temperature for 30 min and read on a PHERAstar FSX microplate reader. […]
Here the recorded Emax is given for each entry.

{"columns": ["CHEMICAL STRING", "ASSAY SYSTEM", "DISPLAY UNIT", "Emax"],
 "data": [
  ["CCCCc1nc2sc3c(NCCN4CCOCC4)ncnc3c2c2c1CCCC2", "vasopressin-2 receptor (AVP2R) (Homo sapiens)", "%", 33],
  ["CN(C)CCNc1ncnc2c1sc1nc(N3CCOCC3)c3c(c12)CCCC3", "vasopressin-2 receptor (AVP2R) (Homo sapiens)", "%", 24.5],
  ["CCN(CC)CCNc1ncnc2c1sc1nc(N3CCCCC3)c3c(c12)CCCC3", "vasopressin-2 receptor (AVP2R) (Homo sapiens)", "%", 33]
]}

---

Molecular target: CCK1R (Homo sapiens)
Test: IP-One accumulation TR-FRET assay, PAM format, HEK-293 CCK1R cells
Assay type: cell-based
Parameters: expressed in transfected cells; host or cells: HEK-293
Conditions: HEK-293 CCK1R cells, PAM format
Here the recorded CCK1R PAM (IP-One) Score (activity score = normalized Emax × pEC50) is given for each entry.
MEASUREMENT NAME: CCK1R PAM (IP-One) Score (activity score = normalized Emax × pEC50)

{"columns": ["COMPOUND", "OBSERVED VALUE"],
 "data": [
  ["NNc1ncnc2c1sc1nc(N3CCOCC3)c3c(c12)CCCC3 [CMP-51]", 0],
  ["CCCc1nc2oc3c(NCCCN(CC)CC)ncnc3c2c2c1CCCC2 [CMP-36]", 1.32],
  ["CN(C)CCNc1nnnc2c1sc1nc(N3CCCCC3)c3c(c12)CCCC3 [CMP-27]", 1.7],
  ["CC(C)Cc1nc2oc3c(NCCN(C)C)ncnc3c2c2c1CCCC2 [CMP-25]", 1.79],
  ["COc1ccc(NC(=O)CSc2ncnc3c2sc2nc(N4CCOCC4)c4c(c23)CCCC4)cc1 [CMP-40]", 0],
  ["O=C(CSc1ncnc2c1sc1nc(N3CCOCC3)c3c(c12)CCCC3)NCc1ccco1 [CMP-65]", 0],
  ["CC(C)Cc1nc2oc3c(N4CCNCC4)ncnc3c2c2c1CCCC2 [CMP-15]", 2.04],
  ["CCOC(=O)N1CCN(c2ncnc3c2oc2nc(CC(C)C)c4c(c23)CCCC4)CC1 [CMP-55]", 0],
  ["C/C(Br)=C\\CSc1ncnc2c1sc1nc(N3CCOCC3)c3c(c12)CCCC3 [CMP-44]", 0],
  ["CC(C)Cc1nc2sc3c(NCCN4CCOCC4)ncnc3c2c2c1CCCC2 [CMP-34]", 1.50],
  ["CCCCc1nc2sc3c(NCCN4CCOCC4)ncnc3c2c2c1CCCC2 [CMP-32]", 1.52]
]}

---

Target: vasopressin-2 receptor (AVP2R) (Homo sapiens, UniProt P30518)
Construct: HEK-293 (agonist format)
Sequence (P30518 whole entry): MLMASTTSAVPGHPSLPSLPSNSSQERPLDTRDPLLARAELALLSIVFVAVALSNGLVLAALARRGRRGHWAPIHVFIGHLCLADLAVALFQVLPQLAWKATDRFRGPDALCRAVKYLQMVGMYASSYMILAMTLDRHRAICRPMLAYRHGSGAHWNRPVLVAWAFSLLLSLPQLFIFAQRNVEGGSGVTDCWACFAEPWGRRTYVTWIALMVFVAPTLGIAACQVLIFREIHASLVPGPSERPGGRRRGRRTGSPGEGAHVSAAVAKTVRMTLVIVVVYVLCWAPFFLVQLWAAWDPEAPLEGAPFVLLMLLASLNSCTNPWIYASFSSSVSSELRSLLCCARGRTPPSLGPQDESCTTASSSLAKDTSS
Experiment: AVP2R cAMP HTRF accumulation assay
Conditions: CHO-K1 AVP2R cells, PAM format with vasopressin; original hits: agonist and PAM data combined; average ± SD
Here the recorded EC50 is given for each entry.

{"columns": ["MOLECULE", "EC50, µM"],
 "data": [
  ["CC(C)Cc1nc2oc3c(N4CCNCC4)ncnc3c2c2c1CCCC2", 7.3],
  ["CC(C)Cc1nc2oc3c(NCCN(C)C)ncnc3c2c2c1CCCC2", 8.6],
  ["CCCc1nc2sc3c(NCCN(CC)CC)ncnc3c2c2c1CCCC2", 6.5],
  ["c1ccc(-c2nc3sc4c(NCCN5CCOCC5)ncnc4c3c3c2CCCC3)cc1", 3.7],
  ["CCCCc1nc2sc3c(NCCN4CCOCC4)ncnc3c2c2c1CCCC2", 9.3],
  ["O=C(CSc1ncnc2c1sc1nc(N3CCOCC3)c3c(c12)CCCC3)NCc1ccco1", 10],
  ["CCCCc1nc2sc3c(NCCCO)ncnc3c2c2c1CCC2", 8.1],
  ["CC(Sc1ncnc2c1sc1nc(N3CCOCC3)c3c(c12)CCCC3)C(=O)O (centres unmarked)", 22.3],
  ["CN(C)CCNc1ncnc2c1sc1nc(-c3ccccc3)c3c(c12)CCCC3", 4.7],
  ["CN(C)CCCNc1nnnc2c1sc1nc(N3CCOCC3)c3c(c12)CCCC3", 22.4],
  ["CC(C)Cc1nc2oc3c(NCCN(C)C)ncnc3c2c2c1CCC2", 22.8],
  ["CCCc1nc2oc3c(N4CCN(CCO)CC4)ncnc3c2c2c1CCCC2", 5.9],
  ["NCCNc1ncnc2c1sc1nc(N3CCCCC3)c3c(c12)CCCC3", 2.7],
  ["CN(C)CCNc1ncnc2c1sc1nc(N3CCOCC3)c3c(c12)CCCC3", 12.8],
  ["CCCc1nc2sc3c(NCCN4CCOCC4)ncnc3c2c2c1CCCC2", 15.7],
  ["CN1CCN(c2ncnc3c2sc2nc(N4CCCCC4)c4c(c23)CCCC4)CC1", 5.4],
  ["CCCc1nc2oc3c(NCCCN(C)C)ncnc3c2c2c1CCCC2", 15],
  ["CN(C)CCNc1nnnc2c1sc1nc(N3CCCCC3)c3c(c12)CCCC3", 9.1],
  ["CCN(CC)CCNc1ncnc2c1oc1nc(CC(C)C)c3c(c12)CCC3", 21],
  ["CCN(CC)CCNc1ncnc2c1sc1nc(-c3ccccc3)c3c(c12)CCCC3", 3.2]
]}

---

Molecular target: CCK1R (Homo sapiens, UniProt P32238)
Sequence (P32238 whole entry): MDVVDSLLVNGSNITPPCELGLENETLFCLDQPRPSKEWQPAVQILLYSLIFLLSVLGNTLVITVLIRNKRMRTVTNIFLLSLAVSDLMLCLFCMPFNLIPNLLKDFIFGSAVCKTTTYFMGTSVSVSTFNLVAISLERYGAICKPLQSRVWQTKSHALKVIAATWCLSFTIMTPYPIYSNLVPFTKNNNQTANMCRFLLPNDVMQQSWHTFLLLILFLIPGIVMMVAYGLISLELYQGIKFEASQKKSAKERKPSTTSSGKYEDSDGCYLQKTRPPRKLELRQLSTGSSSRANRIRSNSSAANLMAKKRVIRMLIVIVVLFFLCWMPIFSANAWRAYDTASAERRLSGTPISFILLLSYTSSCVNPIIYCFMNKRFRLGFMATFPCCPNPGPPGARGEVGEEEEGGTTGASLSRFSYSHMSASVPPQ
Test: IP-One accumulation TR-FRET assay, PAM format, HEK-293 CCK1R cells
Assay type: cell-based
Design: expressed in transfected cells; host or cells: HEK-293
Conditions: HEK293; HEK-293 CCK1R cells, PAM format, relative to CCK control; average ± SD
Here the recorded Emax is given for each entry.

{"columns": ["COMPOUND", "DISPLAY UNIT", "Emax"],
 "data": [
  ["CCOC(=O)N1CCN(c2ncnc3c2oc2nc(CC(C)C)c4c(c23)CCCC4)CC1 [CMP-55]", "%", 0],
  ["c1ccc(-c2nc3sc4c(NCCN5CCOCC5)ncnc4c3c3c2CCCC3)cc1 [CMP-26]", "%", 41],
  ["C=CCNc1ncnc2c1sc1nc(N3CCOCC3)c3c(c12)CCCC3 [CMP-50]", "%", 0],
  ["CCN(CC)c1ncnc2c1sc1nc(N3CCOCC3)c3c(c12)CCCC3 [CMP-46]", "%", 0],
  ["CCN(CC)CCNc1ncnc2c1sc1nc(-c3ccccc3)c3c(c12)CCCC3 [CMP-11]", "%", 45],
  ["CCCc1nc2oc3c(N4CCN(CCO)CC4)ncnc3c2c2c1CCCC2 [CMP-30]", "%", 36],
  ["O=C(CSc1ncnc2c1sc1nc(N3CCOCC3)c3c(c12)CCCC3)Nc1ccc(Br)cc1 [CMP-41]", "%", 0]
]}

---

Molecular target: CCK1R (Homo sapiens)
Assay: IP-One accumulation TR-FRET assay, agonist format, HEK-293 CCK1R cells
Format: cell-based
Set-up: expressed in transfected cells; host or cells: HEK-293
Conditions: average ± SD, read-out: CCK1R Ago (IP-One) EC50
Protocol: For structure–activity relationship studies, we performed myo-inositol-1-phosphate (IP-One) accumulation assays with TR-FRET technology applied to the HEK-293 cell line overexpressing CCK1Rs, as we had described in our high throughput screening effort. […] Detection reagents from the IP-One Gq detection kit from Cisbio (Cisbio US Inc., Bedford, MA, USA, #62IPAPEJ) were added, and after 1 h at RT, IP-One content was measured with a PHERAstar FSX microplate reader (BMG Labtech, Ortenberg, Germany). […]
pEC50: −log10 of the molar value.
Here the recorded pEC50 is given for each entry.
MEASUREMENT NAME: pEC50

{"columns": ["COMPOUND", "OBSERVED VALUE"],
 "data": [
  ["CN(C)CCNc1ncnc2c1sc1nc(-c3ccccc3)c3c(c12)CCCC3 [CMP-14]", 4.53],
  ["CN(C)CCCNc1nnnc2c1sc1nc(N3CCCCC3)c3c(c12)CCCC3 [CMP-23]", 4.52],
  ["NCCNc1ncnc2c1sc1nc(N3CCCCC3)c3c(c12)CCCC3 [CMP-22]", 4.57],
  ["CCN(CC)CCNc1ncnc2c1sc1nc(-c3ccccc3)c3c(c12)CCCC3 [CMP-11]", 4.57]
]}
